Below: a set of entries, each annotated with reported Percent Effect.
# subject-of-test: Aspartate--tRNA(Asp/Asn) ligase (Mycobacterium tuberculosis (strain ATCC 25618 / H37Rv)) (UniProt P9WFW3)
# Sequence (P9WFW3 whole entry): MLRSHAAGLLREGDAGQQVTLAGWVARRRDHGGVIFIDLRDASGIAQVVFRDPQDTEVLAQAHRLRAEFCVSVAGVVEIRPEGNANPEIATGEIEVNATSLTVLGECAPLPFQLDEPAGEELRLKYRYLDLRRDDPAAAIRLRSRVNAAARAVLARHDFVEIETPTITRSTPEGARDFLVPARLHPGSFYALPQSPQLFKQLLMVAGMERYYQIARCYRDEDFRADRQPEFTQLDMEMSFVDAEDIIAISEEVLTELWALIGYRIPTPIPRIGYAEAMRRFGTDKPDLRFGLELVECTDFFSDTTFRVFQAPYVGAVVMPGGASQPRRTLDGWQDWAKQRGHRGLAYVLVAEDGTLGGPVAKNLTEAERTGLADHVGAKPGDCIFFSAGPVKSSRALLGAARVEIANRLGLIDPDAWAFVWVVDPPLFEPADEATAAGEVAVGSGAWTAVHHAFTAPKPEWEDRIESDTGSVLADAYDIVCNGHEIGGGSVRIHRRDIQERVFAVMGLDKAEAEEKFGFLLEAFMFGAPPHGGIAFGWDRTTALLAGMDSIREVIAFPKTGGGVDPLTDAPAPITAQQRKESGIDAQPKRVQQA
# protocol: Assay for Asp RNA synthetase-1 from Mycobacterium tuberculosis
# Format: functional
# Set-up: scale not given: in the data most compounds retested in dose-response had high values
# conditions-used: 30 µM
Your answer should be a plain number; it is taken to be in %.

O=C(c1ccc[nH]1)N1C[C@H]2CN(Cc3cccc(F)c3)C(=O)[C@H]2C1; 0.565

What measured Percent Effect goes with CCOC(=O)c1sc2ccsc2c1CN ? -0.321

What measured Percent Effect goes with O=C(c1ccc(Cl)o1)N1CCCC(c2cc(C(F)(F)F)[nH]n2)C1 (stereo not drawn) ? 3.23

What measured Percent Effect goes with O=C1CC(c2cccs2)c2cnn(C3CCCC3)c2N1 (stereo not drawn) ? -1.62

What measured Percent Effect goes with CCOCCn1nc(C)cc1C(=O)N1CCOCC(CO)C1 (stereo not drawn) ? -1.08

What measured Percent Effect goes with O=C(c1cc(=O)[nH]c(=O)[nH]1)N1CCCCC1c1nc2cc(F)ccc2[nH]1 (stereo not drawn) ? -0.139
